pIC50: −log10 of the molar value.
Multiple publications report pIC50 for CRBN-DDB1 (Homo sapiens, UniProt Q96SW2); what follows is a combined list.

Worked set:
| Compound | Reported Endpoint | Reported Result |
| --- | --- | --- |
| O=C1CCC(c2c(F)cc(N3CC(NC(=O)Cc4cc(Cl)c(F)cc4F)C3)cc2F)C(=O)N1 (centres unmarked) | pIC50 | 6.00 to 7.00 |
| O=C1CCC(c2c(F)cc(N3CC(OC(=O)NC45CC(CF)(C4)C5)C3)cc2F)C(=O)N1 (centres unmarked) | pIC50 | ≥ 7.00 |
| O=C1CCC(c2c(F)cc(N3CC(OC(=O)NCC4CCCC4)C3)cc2F)C(=O)N1 (centres unmarked) | pIC50 | ≥ 7.00 |
| CN1CCC(Oc2cc(Cl)cc(NC(=O)NCc3ccc4c(c3)C(=O)N(C3CCC(=O)NC3=O)C4)c2)C1 (centres unmarked) | pIC50 | 6.16 |
| O=C1CCC(c2c(F)cc(N3CC(OC(=O)NCC4CC4)C3)cc2F)C(=O)N1 (centres unmarked) | pIC50 | 6.00 to 7.00 |

# per-item lookup of pIC50; items listed below
1. O=C1CCC(N2Cc3ccc(CNC(=O)NCCc4ccc(Cl)cc4)cc3C2=O)C(=O)N1 (centres unmarked)
2. O=C1CCC(c2c(F)cc(N3CC(OC(=O)NC4COC4)C3)cc2F)C(=O)N1 (centres unmarked)
3. Cc1cc(NC(=O)OC2CN(c3cc(F)c(C4CCC(=O)NC4=O)c(F)c3)C2)cc(CN2CC3CC2CO3)c1C (centres unmarked)

6.40
6.00 to 7.00
≥ 7.00
